Organism: Felis catus
run description: In vitro inhibition of HCO3- stimulated swelling in cat cerebrocortical tissue slice
Assay type: functional
condition description: read-out: I 50
Quick reference for pIC50 among some compounds
API: returns pIC50 as number; meaning -log10 of concentration in mol/L.

Answered cases to consult:
1) C=C(CC)C(=O)c1ccc(OCC(=O)O)c(Cl)c1Cl
6.00
2) CCC(C)C(=O)c1ccc(OCC(=O)O)c(Cl)c1Cl (centres undefined)
6.30
3) NS(=O)(=O)c1cc(C(=O)O)c(NCc2ccco2)cc1Cl [FUROSEMIDE]
5.00

// next entry
Query string: For the compound shown here, CC1(C2CCCC2)Cc2cc(OCCCC(=O)O)c(Cl)c(Cl)c2C1=O (racemic) , give the reported pIC50.
Result string: 7.70

Just for reference, ChEMBL document CHEMBL1122058 is where these values come from.
